- protocol_summary: Pharmacokinetic evaluation, SD rat test
- Format: in vivo
- run_conditions: both sexes, rat, plasma, po; SD rats, i.g., 2.0 mg/kg; read-out: Clearance CL/F
reported_endpoint: CL/F (mL/min/kg)

> print(dat)
                                   compound  reported.endpoint  result.unit  reading
1  CC(C)C[C@H]1CCc2cc(O)ccc2[C@H]1c1ccc(N2CCC(CN3CCN(c4ccc5c(c4)CN([C@H]4CCC(=O)NC4=O)C5=O)CC3)CC2)cc1               CL/F    mL/min/kg      102

###

- protocol_summary: Pharmacokinetic evaluation, beagle test
- Format: in vivo
- run_conditions: both sexes, beagle, dog, plasma, po; beagles, i.g., 2.0 mg/kg; read-out: Clearance CL/F
Known CL/F of a selection of molecules

molecule	CL/F [L/h/kg]
O=C1CCC(N2Cc3cc(N4CCN(CC5CCN(c6ccc([C@@H]7c8ccc(O)cc8CC[C@@H]7c7ccccc7)cc6)CC5)CC4)ccc3C2=O)C(=O)N1 (some centres unmarked) [Comparative Example 1, reference compound]	0.438
CC(C)C[C@H]1CCc2cc(O)ccc2[C@H]1c1ccc(N2CCC(CN3CCN(c4ccc5c(c4)CN([C@H]4CCC(=O)NC4=O)C5=O)CC3)CC2)cc1	0.372
